System: LOX IMVI melanoma
Assay: NCI tumour cell line growth inhibition, 48 h
readout.name: TGI

compound: COc1ccc(-c2nn3ncccc3c2-c2ccnc(Nc3ccc(Cl)c(C(F)(F)F)c3)n2)cc1
system.name: LOX IMVI melanoma
readout.name: TGI
readout.value: > 25 µM
//
compound: COc1ccc(C2=C(OC(=O)N(C)C)c3cccn3-c3cc(C(F)(F)F)ccc3S2)cc1
system.name: LOX IMVI melanoma
readout.name: TGI
readout.value: > 10 µM
//
compound: Oc1ccc(/C=C\c2nnc(/C=C\c3ccc(O)c(O)c3)s2)cc1O
system.name: LOX IMVI melanoma
readout.name: TGI
readout.value: > 55.2 µM
//
compound: CC(=O)O/C=C\OC1CCCC1(c1ccccc1)c1ccccc1 (configuration not stated)
system.name: LOX IMVI melanoma
readout.name: TGI
readout.value: 3.14 µM
//
compound: Nc1nc(SCc2ccccn2)c2ncn(C3CCCC3)c2n1
system.name: LOX IMVI melanoma
readout.name: TGI
readout.value: > 100 µM

Lookup: Report TGI, nothing else, for this compound: COc1cc2c(cc1OC)C(=O)/C(=C/c1cccc(OCC(=O)c3ccccc3)c1)C2
Found: > 100 µM

Lookup: Please report TGI for the following compound: CC1=C(C(=O)Nc2ccccc2C)C(c2ccccc2)C(C(=O)Nc2ccccc2C)=C(C)N1
Found: 42.6 µM
